Entry source: patent US20220112288A1

The following binders are listed with their measured PBMCs CD4+ percent bound of viable values.
ASSAY TARGET: T1, human CD4 on cells (SKW3 cells; human PBMCs) (human, UniProt P01730 26-458)
T1 construct: whole, on cells; The SKW3 CD4 knockout cells served as the negative cell line; also called hCD4
PROTOCOL TEXT: FACS confirmation, supernatant on human PBMCs, anti-mFc 647

BINDER	UNITS	PBMCs CD4+ percent bound of viable
75110_08H06A (antibody, V domains shown, Tested as non-clonal hybridoma supernatant from AlivaMab Mouse Kappa mice, detected with anti-mouse Fc and anti-human Kappa) VH: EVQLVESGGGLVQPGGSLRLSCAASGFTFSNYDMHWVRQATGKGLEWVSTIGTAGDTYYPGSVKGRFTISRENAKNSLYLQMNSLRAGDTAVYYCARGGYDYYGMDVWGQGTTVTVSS VL: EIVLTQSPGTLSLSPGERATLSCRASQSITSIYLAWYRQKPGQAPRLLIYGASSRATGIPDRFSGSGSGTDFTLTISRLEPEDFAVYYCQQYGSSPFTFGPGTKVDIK	%	30
75110_10K21A (antibody, V domains shown, Tested as non-clonal hybridoma supernatant from AlivaMab Mouse Kappa mice, detected with anti-mouse Fc and anti-human Kappa) VH: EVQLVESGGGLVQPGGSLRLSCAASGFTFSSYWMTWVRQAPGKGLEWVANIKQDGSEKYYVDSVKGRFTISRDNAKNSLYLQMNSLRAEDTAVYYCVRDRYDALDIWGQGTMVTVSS VL: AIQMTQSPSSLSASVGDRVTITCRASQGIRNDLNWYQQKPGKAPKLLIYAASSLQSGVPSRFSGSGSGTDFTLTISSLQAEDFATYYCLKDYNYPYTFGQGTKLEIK	%	32
75110_01H18A (antibody, V domains shown, Tested as non-clonal hybridoma supernatant from AlivaMab Mouse Kappa mice, detected with anti-mouse Fc and anti-human Kappa) VH: QVQLQQWGAGLLKPSETLSLTCAVYGGSFSGYYWSWIRQSPGKGLEWIGEINQSGSTNYNPSLKSRVTISVDTSKNQFSLKLSSVTAADTAVYYCARVINWFDSWGQGTLVTVSS VL: DIQMTQSPSSVSASVGDRVTITCRASQGISSWLAWYQQKPGKAPKLLIYAASSFQSGVPSRFSGSGSGTDFTLTISSLQTEDFATYYCQQANSFPYTFGQGTRLEIK	%	32
75110_10N21A (antibody, V domains shown, Tested as non-clonal hybridoma supernatant from AlivaMab Mouse Kappa mice, detected with anti-mouse Fc and anti-human Kappa) VH: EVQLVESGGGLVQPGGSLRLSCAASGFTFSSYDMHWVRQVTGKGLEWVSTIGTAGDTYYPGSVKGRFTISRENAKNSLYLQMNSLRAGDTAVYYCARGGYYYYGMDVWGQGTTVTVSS VL: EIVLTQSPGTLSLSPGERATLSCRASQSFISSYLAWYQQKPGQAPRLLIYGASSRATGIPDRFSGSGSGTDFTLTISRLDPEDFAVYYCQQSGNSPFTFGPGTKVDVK	%	33
75110_08H11A (antibody, V domains shown, Tested as non-clonal hybridoma supernatant from AlivaMab Mouse Kappa mice, detected with anti-mouse Fc and anti-human Kappa) VH: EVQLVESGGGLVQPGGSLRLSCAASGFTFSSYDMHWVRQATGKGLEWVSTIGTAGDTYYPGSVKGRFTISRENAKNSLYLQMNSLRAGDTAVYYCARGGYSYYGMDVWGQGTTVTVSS VL: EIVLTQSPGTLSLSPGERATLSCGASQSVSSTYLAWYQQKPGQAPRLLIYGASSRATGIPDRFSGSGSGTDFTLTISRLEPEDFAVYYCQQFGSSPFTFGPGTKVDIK	%	31
